As shown below, each of these binders has a reported EC50 value.
target_of_assay: T1, cynomolgus monkey GPRC5D (cynomolgus monkey)
T1 construct: whole, on cells; HEK293T-cynoGPRC5D cells; also called cynoGPRC5D
protocol_text: FACS, HEK293T-cynoGPRC5D cells
Field format: number, assumed nM, no unit text.

ch87A3G8 (antibody, V domains shown) VH: QVQLKESGPGLVAPSQSLSITCTVSGFSLSSYSVYWVRQPPGKGLEWLGVIWAGGSTNYNSALMSRLSINKDKSKSQVFLKMNSLQTDDSAIYYCAMRWLPRGLDFWGQGTSVTVSS VL: DIVMTQSHKFMSTSVGDRVSITCKASQDVGTAVAWYQQKPGQSPKLLIYWASTRHTGVPDRFTGSGSGTDFTLTISNVQSEDLADYFCQQYSTYYTFGGGTKLEIK :: 9.74

Ask: Request the reported EC50 associated with ch15D6G2 (antibody, V domains shown) VH: EVQLVESGGDLVKPGGYLRLSCAASGFTFSSHGMSWVRQTPDKRLEWVATISSGGRNTYYPDSVKGRFTISRDNAKNILYLQMSSLKSEDTAMFYCTRHSGDAMDYWGQGTSVTVSS VL: DILLTQSPAILSVSPGERVSFSCRASQSIGTNIHWYQQRTNGSPRLLIKYASESISGIPSRFSGSGSGTDFTLSINSVESEDIADYYCQQSKSWPTFGGGTKLEIK
Result: 19.3
